# Method Description: clinical
# Experimental Parameters: human, in vivo
Measurement Kind: concentration at 25 day

Form field: reported concentration at 25 day of Cc1ccc(CNCC2(F)CCN(C(=O)c3ccc(F)c(Cl)c3)CC2)nc1
38.7 ng/mL

====

# Method Description: clinical
# Experimental Parameters: human, in vivo
Measurement Kind: concentration at 14 day (ng/mL)
Could you give me the number in ng/mL? Just the number is fine.

Param item = Cc1ccc(CNCC2(F)CCN(C(=O)c3ccc(F)c(Cl)c3)CC2)nc1 ; retrieve measured concentration at 14 day.
32.3
